# target: PI 3-kinase gamma (Homo sapiens, UniProt P48736)
# Sequence (P48736 whole entry): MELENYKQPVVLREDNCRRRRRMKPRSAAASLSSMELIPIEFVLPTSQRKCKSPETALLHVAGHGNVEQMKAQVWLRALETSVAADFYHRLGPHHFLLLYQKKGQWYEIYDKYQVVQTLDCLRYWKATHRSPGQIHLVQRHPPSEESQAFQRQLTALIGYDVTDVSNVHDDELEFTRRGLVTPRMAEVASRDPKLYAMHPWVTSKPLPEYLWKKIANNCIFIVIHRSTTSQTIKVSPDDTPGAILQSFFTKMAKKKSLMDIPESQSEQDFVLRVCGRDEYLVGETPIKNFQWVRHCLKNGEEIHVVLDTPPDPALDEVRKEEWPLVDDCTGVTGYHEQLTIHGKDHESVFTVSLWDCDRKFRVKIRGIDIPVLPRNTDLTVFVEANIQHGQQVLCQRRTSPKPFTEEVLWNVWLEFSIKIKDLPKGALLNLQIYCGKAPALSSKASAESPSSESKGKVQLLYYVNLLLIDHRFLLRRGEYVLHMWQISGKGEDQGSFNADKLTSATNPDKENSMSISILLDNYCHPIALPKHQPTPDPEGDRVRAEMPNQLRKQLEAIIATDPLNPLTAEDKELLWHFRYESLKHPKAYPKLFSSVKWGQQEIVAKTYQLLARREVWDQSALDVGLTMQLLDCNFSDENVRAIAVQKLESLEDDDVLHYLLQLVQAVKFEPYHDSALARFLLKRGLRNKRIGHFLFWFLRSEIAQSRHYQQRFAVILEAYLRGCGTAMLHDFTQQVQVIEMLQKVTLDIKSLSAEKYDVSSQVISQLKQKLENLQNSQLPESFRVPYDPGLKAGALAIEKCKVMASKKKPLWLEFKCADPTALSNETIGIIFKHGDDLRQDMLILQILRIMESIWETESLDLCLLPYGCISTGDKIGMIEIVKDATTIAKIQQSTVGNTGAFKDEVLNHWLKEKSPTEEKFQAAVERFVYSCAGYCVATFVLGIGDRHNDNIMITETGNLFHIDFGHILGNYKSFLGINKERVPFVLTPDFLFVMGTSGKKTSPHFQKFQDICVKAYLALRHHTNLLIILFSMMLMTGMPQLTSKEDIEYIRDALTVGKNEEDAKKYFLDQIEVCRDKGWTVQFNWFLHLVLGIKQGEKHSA
# measurement.notes: TR-FRET Adapta assay, assay E
# Type: biochemical
# measurement.context: read-out: Assay E PI3Kγ IC50
Entries and their IC50
measured.parameter: IC50 (nM)

| compound | measured.parameter | unit.tag | result |
| --- | --- | --- | --- |
| Cc1ccc(S(=O)(=O)NC2CC3(CC(O)C3)C2)cc1-c1cnc(N)c(-n2cncn2)n1 (single isomer, unassigned) [Example 70b] | IC50 | nM | 4 |
| Cc1ccc(S(=O)(=O)NCCC(C)(C)O)cc1-c1cnc(N)c(-c2cccnc2F)n1 | IC50 | nM | 1000 |
| Cc1ncc(-c2nc(-c3cc(S(=O)(=O)NC[C@H]4CCOC4)ccc3C)cnc2N)s1 | IC50 | nM | 7 |
| Cc1ccc(S(=O)(=O)NCCC(C)(C)O)cc1-c1cnc(N)c(-c2ccc(OC3CCOCC3)nc2)n1 | IC50 | nM | 761 |

----------
Entries and their Assay M RLM CI(int)
# measurement.notes: Microsomal clearance assay (M)
# measurement.context: intrinsic clearance in rat liver microsomes
Counter-ions that a name gives are not always drawn.
measured.parameter: Assay M RLM CI(int)

| compound | result |
| --- | --- |
| Cc1ccc(S(=O)(=O)NCCN)cc1-c1cnc(N)c(-n2cncn2)n1 [Example 33, trifluoroacetic acid salt] | 12 µL/min/mg |
| Cc1cc(F)c(S(=O)(=O)NCCC(C)(C)O)cc1-c1cnc(N)c(-n2cncn2)n1 | 35 µL/min/mg |
| Cc1ccc(S(=O)(=O)NCCC(C)(C)O)cc1-c1cnc(N)c(-n2cnc(C3CC3)n2)n1 | 223 µL/min/mg |
| Cc1ccc(S(=O)(=O)N[C@H]2C[C@H](O)C2)cc1-c1cnc(N)c(-n2cncn2)n1 [Example 71a] | 18 µL/min/mg |
| Cc1ccc(S(=O)(=O)NCCC(C)(C)O)cc1-c1cnc(N)c(-c2cnn(CC(F)(F)F)c2)n1 | 62 µL/min/mg |
| Cc1ccc(S(=O)(=O)NCCC(C)(C)O)cc1-c1cnc(N)c(-c2nc(C3CC3)no2)n1 | 134 µL/min/mg |
| Cc1ccc(S(=O)(=O)N2CCC(F)(F)CC2)cc1-c1cnc(N)c(-n2cncn2)n1 | 560 µL/min/mg |
| Cc1cc(-c2nc(-c3cc(S(=O)(=O)N[C@@H]4CCC[C@H]4N)ccc3C)cnc2N)ccn1 | >924 µL/min/mg |
| Cc1ccc(S(=O)(=O)NCC(C)(C)O)cc1-c1cnc(N)c(-n2cnc(C3CC3)n2)n1 | <3.4 µL/min/mg |
| Cc1ccc(S(=O)(=O)N[C@H]2CC[C@H](O)CC2)cc1-c1cnc(N)c(-n2cccn2)n1 | 29 µL/min/mg |
| Cc1ccc(S(=O)(=O)NCC2(O)CCCC2)cc1-c1cnc(N)c(-n2cncn2)n1 | 202 µL/min/mg |
| Cc1ccc(S(=O)(=O)NCC2(CO)COC2)cc1-c1cnc(N)c(-c2cn(C)nc2C)n1 | 22 µL/min/mg |
| Cc1ccc(S(=O)(=O)NC2CC3(CC(O)C3)C2)cc1-c1cnc(N)c(-n2cncn2)n1 (stereo not shown) [Example 67] | 36 µL/min/mg |
| Cc1nc(-c2nc(-c3cc(S(=O)(=O)NCC(C)(C)O)ccc3C)cnc2N)c(C)s1 | 92 µL/min/mg |
| Cc1nnc(-c2nc(-c3cc(S(=O)(=O)NCC(C)(C)O)ccc3C)cnc2N)o1 | 19 µL/min/mg |
| Cc1ccc(S(=O)(=O)NCC(C)(C)O)cc1-c1cnc(N)c(-c2cn(C)nn2)n1 | 29 µL/min/mg |
| Cc1ccc(S(=O)(=O)NCCC(C)(C)O)cc1-c1cnc(N)c(-n2cncn2)n1 | 61 µL/min/mg |
| Cc1ncc(-c2nc(-c3cc(S(=O)(=O)N[C@H]4C[C@H](O)C4)ccc3C)cnc2N)s1 [Example 43b] | 45 µL/min/mg |
| Cc1cc(-c2nc(-c3cc(S(=O)(=O)NCCN4CCOCC4)ccc3C)cnc2N)ccn1 | 159 µL/min/mg |
| Cc1ccc(S(=O)(=O)N[C@H]2CC[C@@H](O)CC2)cc1-c1cnc(N)c(-c2cnn(C)c2)n1 | 13 µL/min/mg |
| Cc1noc(-c2nc(-c3cc(S(=O)(=O)N[C@H]4CC[C@H](O)CC4)ccc3C)cnc2N)n1 | 25 µL/min/mg |
| Cc1ccc(S(=O)(=O)NC2CCC(F)(F)CC2)cc1-c1cnc(N)c(-c2cnn(C)c2)n1 | 141 µL/min/mg |
| Cc1ncc(-c2nc(-c3cc(S(=O)(=O)N[C@@H]4CCOC4)ccc3C)cnc2N)s1 [Example 45.7b] | 135 µL/min/mg |
| Cc1ccc(S(=O)(=O)NCCC(C)(C)O)cc1-c1cnc(N)c(-c2ccncc2)n1 | 87 µL/min/mg |
| Cc1cc(-c2nc(-c3cc(S(=O)(=O)N[C@H]4CC[C@@H](O)CC4)ccc3C)cnc2N)ccn1 | 48 µL/min/mg |
| Cc1nnc(-c2nc(-c3cc(S(=O)(=O)N[C@H]4CC[C@H](O)CC4)ccc3C)cnc2N)o1 | <3.4 µL/min/mg |
| Cc1cc(F)c(S(=O)(=O)NCC(C)(C)O)cc1-c1cnc(N)c(-n2cncn2)n1 | 26 µL/min/mg |
| Cc1ccc(S(=O)(=O)NCC[C@@H](O)C(F)(F)F)cc1-c1cnc(N)c(-c2cn(C)nc2C)n1 (single isomer, unassigned) [Example 52b] | 43 µL/min/mg |

Reference source for all entries: patent US10004732B2
